Listed next: entries and their corresponding pKd.
- Test target: T1, LIN7C, Q9NUP9
- T1 sequence (Q9NUP9 88-185, limits assumed, looked up): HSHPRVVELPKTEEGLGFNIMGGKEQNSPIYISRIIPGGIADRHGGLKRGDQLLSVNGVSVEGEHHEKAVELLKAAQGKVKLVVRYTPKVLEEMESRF
- Experiment summary: holdup assay
- Design: key: below the threshold = too weak to quantify, mostly under pKd 3.1 to 4
- Condition details: plain residues with an end cap or a label only (N-terminal biotin on a linker: ado-ado)
Just the number, please.

Some binders with recorded pKd:
binder="YLEPVLSSEL [ATP2A2, P16615]" attribute_measured=pKd endpoint_value=3.8
binder="YRLAQESGLV [ABCC6, O95255]" attribute_measured=pKd endpoint_value=4.01
binder="NLSIEKETKL [ASNSD1, Q9NWL6]" attribute_measured=pKd endpoint_value=4.2

Field: next binder
Please report the measured pKd for LRSPRTPSEV [OR10G3, Q8NGC4]
3.88
